METHOD DESCRIPTION: Single-dose plasma pharmacokinetics of intravenous VPA
APPLIED CONDITIONS: human, plasma, intravenous, 30 mg/kg
MEASURE NAME: concentration at 24 h

CCCC(CCC)C(=O)O	39500 ng/mL

###

METHOD DESCRIPTION: Single-dose plasma pharmacokinetics of intravenous VPA
APPLIED CONDITIONS: human, plasma, intravenous, 60 mg/kg
MEASURE NAME: concentration at 24 h (ng/mL)

CCCC(CCC)C(=O)O [VPA, valproic acid]	39800

###

METHOD DESCRIPTION: Single-dose plasma pharmacokinetics of intravenous VPA
APPLIED CONDITIONS: human, plasma, iv, 130 mg/kg
MEASURE NAME: AUC(0-inf) (µg·h/mL)

CCCC(CCC)C(=O)O	11300

###

METHOD DESCRIPTION: Single-dose plasma pharmacokinetics of intravenous VPA
APPLIED CONDITIONS: human, plasma, iv, 150 mg/kg
MEASURE NAME: AUC (µg·h/mL)

CCCC(CCC)C(=O)O	6910

###

METHOD DESCRIPTION: Single-dose plasma pharmacokinetics of intravenous VPA
APPLIED CONDITIONS: human, plasma, iv, 140 mg/kg
MEASURE NAME: half-life (h)

CCCC(CCC)C(=O)O [VPA, valproic acid]	9.7

###

METHOD DESCRIPTION: Single-dose plasma pharmacokinetics of intravenous VPA
APPLIED CONDITIONS: human, plasma, intravenous, 15 mg/kg
MEASURE NAME: concentration at 24 h (ng/mL)

CCCC(CCC)C(=O)O	22600

###

METHOD DESCRIPTION: Single-dose plasma pharmacokinetics of intravenous VPA
APPLIED CONDITIONS: human, plasma, iv, 120 mg/kg
MEASURE NAME: Cmax (µg/mL)

CCCC(CCC)C(=O)O	537

###

METHOD DESCRIPTION: Single-dose plasma pharmacokinetics of intravenous VPA
APPLIED CONDITIONS: human, plasma, iv, 90 mg/kg
MEASURE NAME: half-life

CCCC(CCC)C(=O)O	8.9 h

###

METHOD DESCRIPTION: Single-dose plasma pharmacokinetics of intravenous VPA
APPLIED CONDITIONS: human, plasma, iv, 90 mg/kg
MEASURE NAME: AUC (µg·h/mL)

CCCC(CCC)C(=O)O	4630

###

METHOD DESCRIPTION: Single-dose plasma pharmacokinetics of intravenous VPA
APPLIED CONDITIONS: human, plasma, intravenous, 140 mg/kg
MEASURE NAME: concentration at 24 h (µg/mL)

CCCC(CCC)C(=O)O	140

###

METHOD DESCRIPTION: Single-dose plasma pharmacokinetics of intravenous VPA
APPLIED CONDITIONS: human, plasma, iv, 15 mg/kg
MEASURE NAME: AUC (µg·h/mL)

CCCC(CCC)C(=O)O	1180

###

METHOD DESCRIPTION: Single-dose plasma pharmacokinetics of intravenous VPA
APPLIED CONDITIONS: human, plasma, iv, 30 mg/kg
MEASURE NAME: AUC(0-inf) (µg·h/mL)

CCCC(CCC)C(=O)O [VPA, valproic acid]	3390

###

METHOD DESCRIPTION: Single-dose plasma pharmacokinetics of intravenous VPA
APPLIED CONDITIONS: human, plasma, iv, 120 mg/kg
MEASURE NAME: AUC (µg·h/mL)

CCCC(CCC)C(=O)O [VPA, valproic acid]	3840

###

METHOD DESCRIPTION: Single-dose plasma pharmacokinetics of intravenous VPA
APPLIED CONDITIONS: human, plasma, iv, 140 mg/kg
MEASURE NAME: AUC (µg·h/mL)

CCCC(CCC)C(=O)O	9870

###

METHOD DESCRIPTION: Single-dose plasma pharmacokinetics of intravenous VPA
APPLIED CONDITIONS: human, plasma, iv, 150 mg/kg
MEASURE NAME: half-life

CCCC(CCC)C(=O)O	7.9 h

###

METHOD DESCRIPTION: Single-dose plasma pharmacokinetics of intravenous VPA
APPLIED CONDITIONS: human, plasma, iv, 15 mg/kg
MEASURE NAME: AUC(0-inf) (µg·h/mL)

CCCC(CCC)C(=O)O [VPA, valproic acid]	1710

###

METHOD DESCRIPTION: Single-dose plasma pharmacokinetics of intravenous VPA
APPLIED CONDITIONS: human, plasma, intravenous, 130 mg/kg
MEASURE NAME: concentration at 24 h

CCCC(CCC)C(=O)O [VPA, valproic acid]	97.2 µg/mL

###

METHOD DESCRIPTION: Single-dose plasma pharmacokinetics of intravenous VPA
APPLIED CONDITIONS: human, plasma, iv, 90 mg/kg
MEASURE NAME: AUC(0-inf) (µg·h/mL)

CCCC(CCC)C(=O)O [VPA, valproic acid]	5810

###

METHOD DESCRIPTION: Single-dose plasma pharmacokinetics of intravenous VPA
APPLIED CONDITIONS: human, plasma, iv, 60 mg/kg
MEASURE NAME: AUC(0-inf) (µg·h/mL)

CCCC(CCC)C(=O)O [VPA, valproic acid]	3040

Source listed as paper PMC5699961.
